I'd be grateful if you could share measured logP for these entries.
- test-details: Partition coefficient (logP)
- Type: physicochemical
- protocol-conditions: octanol/water
Reply: number alone, nothing else.

Item `CCCCCCS(=O)(=O)c1ccc(O)c(C(=O)Nc2ccc(Br)cc2)c1` has what recorded logP?
5.2

Next entry: `CCCCCCCCCCCCS(=O)(=O)c1ccc(O)c(C(=O)Nc2ccc(C(F)(F)F)cc2)c1`
8.46

Same for `CCCCCCCCCCS(=O)(=O)c1ccc(O)c(C(=O)Nc2ccc(C(F)(F)F)cc2)c1`
7.38

Repeat for the following compound: `CCCCS(=O)(=O)c1ccc(O)c(C(=O)Nc2ccc(Br)cc2)c1`
4.12

Now consider `CCCCS(=O)(=O)c1ccc(O)c(C(=O)Nc2ccc(C(F)(F)F)cc2)c1` and answer again.
4.14

====

- System: Actinomyces viscosus
- test-details: Compound was tested for it's inhibitory activity against Actinomyces viscosus M100-2000
- Format: functional, organism-based
Exercise: for every item that follows, state its recorded pIC50.
pIC50 is a log-scale quantity: -log10 of the concentration expressed in molar.

I have this molecule here, `CCCCCCCCCCS(=O)(=O)c1ccc(O)c(C(=O)Nc2cccc(C(F)(F)F)c2)c1` , and I need its recorded pIC50.
3.17

Param item: O=C(Nc1ccc(Br)cc1)c1cc(Br)cc(Br)c1O [TRIBROMSALAN]
3.06

Also, `CCCCCCCCCCS(=O)(=O)c1ccc(O)c(C(=O)Nc2ccc([N+](=O)[O-])cc2)c1` please.
3.64

What do you get for `CCCCCCCCCCS(=O)(=O)c1ccc(O)c(C(=O)Nc2ccc(C(F)(F)F)cc2)c1` ?
4.05
